What inhibition was measured for each of the following?
molecular target: Acetylcholinesterase (Electrophorus electricus) (UniProt O42275); experiment: Inhibition of electric eel AChE at 0.006 ug using acetylthiocholine iodide as substrate preincubated for 15 mins followed by substrate addition measured every 5 mins for 15 mins by spectrophotometric method relative to control
Sequence (O42275 24-633 limits assumed): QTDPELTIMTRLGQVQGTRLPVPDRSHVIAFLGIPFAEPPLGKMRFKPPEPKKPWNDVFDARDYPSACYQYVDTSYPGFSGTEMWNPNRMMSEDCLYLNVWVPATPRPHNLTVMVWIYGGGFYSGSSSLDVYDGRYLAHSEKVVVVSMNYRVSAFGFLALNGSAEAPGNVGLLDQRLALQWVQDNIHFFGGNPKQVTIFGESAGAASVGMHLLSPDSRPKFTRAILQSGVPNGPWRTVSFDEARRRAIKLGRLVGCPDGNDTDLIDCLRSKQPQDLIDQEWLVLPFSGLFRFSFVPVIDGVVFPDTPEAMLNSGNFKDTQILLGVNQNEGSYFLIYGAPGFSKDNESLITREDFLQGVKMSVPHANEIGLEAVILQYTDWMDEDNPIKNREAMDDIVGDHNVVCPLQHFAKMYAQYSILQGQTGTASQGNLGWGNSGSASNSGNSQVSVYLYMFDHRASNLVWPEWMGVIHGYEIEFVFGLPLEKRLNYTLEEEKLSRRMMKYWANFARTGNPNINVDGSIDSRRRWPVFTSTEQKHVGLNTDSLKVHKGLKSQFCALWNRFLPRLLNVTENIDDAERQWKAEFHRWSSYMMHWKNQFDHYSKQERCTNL
Unit % implied. Number only.

Enquiry: Which inhibition is reported with Acetylcholinesterase (Electrophorus electricus) (UniProt O42275) for this entry: Cc1[nH]nc2c1C(c1cccnc1)c1c(nc3c(c1N)CCCC3)O2 (centres undefined) ?
Return: 6.61

Enquiry: Which inhibition is reported with Acetylcholinesterase (Electrophorus electricus) (UniProt O42275) for this entry: COc1ccc2ccccc2c1C1c2c(n[nH]c2C)Oc2nc3c(c(N)c21)CCCC3 (centres undefined) ?
Return: 12.6

Enquiry: Which inhibition is reported with Acetylcholinesterase (Electrophorus electricus) (UniProt O42275) for this entry: CSc1ccc(C2c3c(n[nH]c3C)Oc3nc4c(c(N)c32)CCCC4)cc1 (centres undefined) ?
Return: 30.4

Enquiry: Which inhibition is reported with Acetylcholinesterase (Electrophorus electricus) (UniProt O42275) for this entry: Cc1[nH]nc2c1C(c1ccc(-c3ccccc3)cc1)c1c(nc3c(c1N)CCCC3)O2 (centres undefined) ?
Return: 34.4
